Test: protein stability index of a GFP-peptide fusion (yeast GPS) (PSI 1-4); higher = more stable; sorted into four equal gates, so the index is relative within each strain
Conditions: ubr1∆

| Polymer Sequence | protein stability index |
| --- | --- |
| ISSEKLLTLTNAANVPV [RPP1A] | 3 |
| MRAKWRKKRTRRLKRKR [RPL41A] | 3.44 |
| NMMNQVGEEETSQKMKK [SRP54] | 3.23 |
| LEQMELSILKGDYSQAT [RPN5] | 2.64 |
| VKTPKKTKYILQRPTAT [CSN12] | 2.43 |
| GRVYRPLFIVEDDESLG [RPB2] | 1.69 |
| LTSSKSVIVSQFCAFDS [SIN4] | 1.64 |
| SLAILGMNLLSNLSQNV [SWI1] | 2.81 |
| HDTLNNEIANSIIQSKQ [BRR2] | 2.88 |
| NFNASLQLTTNTEQGDS [SNM1] | 1.85 |
| SLSIKLATLHYQKKQYK [RPN6] | 1.34 |
| TASSEASAGSKEGASTN [YMR153W/NUP53] | 3.39 |
| FLPRKRAASIRARVKAF [RPL3] | 1.17 |
| YLFHNDRIIHTWRTQLA [ECM29] | 1.91 |
| RGQQVENPTDNFIIWIN [GRR1] | 2.61 |
| LNLEQVTLNKYCSGNIY [YJL039C/NUP192] | 2.39 |
| KVTSTLLEQDTSTEKLY [PRE9] | 2.63 |
| VCFNNLVDENTDYLYRR [YCS4] | 2.08 |
| NVNSRNQLVEPNRIKLS [SRB5] | 2.19 |
| PKSTKGKILTIKQQQQQ [YML103C/NUP188] | 2.52 |
| RNSWNFALIDYFYDLDV [BRN1] | 2.06 |
| NDFFDNGDNLYGNDEEV [RPN4] | 1.05 |
| DLTGSEPIKEIIDNWEK [FAS1] | 3.07 |
| FRGNISQPKIGYGSNKK [RPL32] | 2.89 |
| SNEDVMMTGAEQDPYSN [RPB3] | 3.12 |
| DDETPSCEVEEIGLLGG [SNU114] | 3.14 |
| ITLIDSASLHLNYGVYL [RET1] | 2.4 |
| LSMRFQRETSGMIVISM [SRB8] | 1.97 |
| LGNIASSFYINHASMDV [BRR2] | 3.27 |
| LKISGEEESLHVFQYAN [RPC37] | 2.41 |

----------
Experiment: protein stability index of a GFP-peptide fusion (yeast GPS) (PSI 1-4); higher = more stable; sorted into four equal gates, so the index is relative within each strain
Conditions: doa10∆
Returns class 1 if the recorded protein stability index is greater than or equal to 3, and class 0 otherwise.

| Polymer Sequence | Cat |
| --- | --- |
| MKESVVEINSSESDLDE [ESC2] | class 1 |
| SVAEVFQKAQGSYAGHR [YCG1] | class 0 |
| SFSVCKIRCFRYISTLT [IRR1] | class 0 |
| LDDITDSNTTEILTSVD [SIR4] | class 1 |
| KSKAEELTQVPSARQKY [UBP6] | class 0 |
| VMNKNQETAISVAKLFK [RPT6] | class 0 |
| VLLHGASLGIGLAAMGS [RPN2] | class 0 |
| DTLNETNLKMKRKWSYV [RRP43] | class 0 |
| NVPWPQNSYADKVTSQA [RPP1] | class 0 |
| TIERSLIEEEVEQDEGQ [YCS4] | class 1 |
| LTFHTLKKANIIYHTTF [YLR018C/POM34] | class 0 |
| GDLLNAEVQSLFQDGSA [RRP4] | class 0 |
| FNKEQLNKFKKAIFQFV [ECM29] | class 0 |
| ALRDVKNNNNANNNGSN [GAL11] | class 1 |
| MTTEDPDSNHLSSETGI [SRB4] | class 1 |
| GKASLFAQGKRRYDRKQ [RPL42A] | class 1 |
| RGSSSLYTLVINDAGKA [RPL38] | class 0 |
| HLDSFNYFVDTDLKKII [RET1] | class 0 |
| TEVERAKSLLKLQLGQL [COR1] | class 0 |
| TLLPGLQDEVMNIKPVQ [RPS2] | class 0 |
| VKPLESSAKRSKNTAVS [SRP72] | class 0 |
| NEVCLEKENRFEIVDRE [SMC4] | class 0 |
| ISKQKSKLDYIFKDKEK [SMC1] | class 0 |
| GGAKSRGVRPYKHIDAS [RPS19A] | class 1 |

Cited source for all entries: the supplement of paper PMC9732359
